Tested on: P. berghei ookinete development
Details: read-out: Pb Ookinete development assay IC50; dose response confirmation
Catalogue of log10 of IC50 values
log10 IC50, nM

Task: Fill in: log10 of IC50 of `COc1cc(NC(=O)Nc2ccc(Br)cc2C(=O)Nc2ccc(Br)cc2)cc(OC)c1OC` is ___
Result: 3.80

Task: What about `Cc1cc2c3c(N)nc(N)nc3ccc2n1C(C)C` ?
Result: 3.37

Task: What about `Cc1[nH]c(C)c(-c2ccc(Oc3ccc(F)cc3)cc2)c(=O)c1Cl` ?
Result: 1.69

---
Task: Fill in: log10 of IC50 of `CCn1c(C(C)C)cc2c3c(N)nc(N)nc3ccc21` is ___
Result: 2.77

Task: What about `COc1ccc2ncc(F)c(CCN3CCC(NCc4cc(Br)c5c(c4)OCCO5)CC3)c2n1.Cl` ?
Result: 3.53
